- System name: hGLP-1R (Homo sapiens)
- Sequence (P43220 24-463): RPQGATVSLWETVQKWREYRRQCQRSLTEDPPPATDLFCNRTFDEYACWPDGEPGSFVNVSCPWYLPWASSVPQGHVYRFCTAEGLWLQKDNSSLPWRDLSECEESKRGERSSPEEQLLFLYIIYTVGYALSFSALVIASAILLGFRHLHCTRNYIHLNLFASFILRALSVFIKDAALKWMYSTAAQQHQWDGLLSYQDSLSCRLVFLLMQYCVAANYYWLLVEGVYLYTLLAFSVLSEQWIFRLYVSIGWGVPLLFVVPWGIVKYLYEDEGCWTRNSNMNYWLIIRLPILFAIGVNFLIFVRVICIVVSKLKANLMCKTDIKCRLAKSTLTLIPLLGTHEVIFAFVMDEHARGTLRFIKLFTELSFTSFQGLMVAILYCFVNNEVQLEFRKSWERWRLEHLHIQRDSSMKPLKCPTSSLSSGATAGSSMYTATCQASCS
- Protocol details: Functional cAMP activity in the presence of 1% HSA
- Format: cell-based
- Test settings: read-out: cAMP Rel EC50, hGLP-1R
Starred links: 1 amine or outer side, 2 acyl side, 3 side chain; linkers in the order of their positions; H or OH if unused. Non-standard residues stand in square brackets, D forms with d. Groups on a side chain read outwards from the residue. No end group written: not given here. *: point of attachment. C20 diacid = O=C(O)CCCCCCCCCCCCCCCCCCC(=O)*; C18 diacid = O=C(O)CCCCCCCCCCCCCCCCC(=O)*; αMePhe(2-F) = C[C@](N)(Cc1ccccc1F)C(=O)O; γGlu = O=C(O)[C@H](CCC(=O)[*:2])N[*:1]; αMe4Pal = C[C@](N)(Cc1ccncc1)C(=O)O; αMeY = C[C@](N)(Cc1ccc(O)cc1)C(=O)O; 4Pal = N[C@@H](Cc1ccncc1)C(=O)O; αMeL = CC(C)C[C@](C)(N)C(=O)O; αMeS = C[C@](N)(CO)C(=O)O; Orn = NCCC[C@H](N)C(=O)O; AEEA = NCCOCCOCC(=O)O; Aib = CC(C)(N)C(=O)O
Readout name: EC50
Number first, unit second.

Substance	System name	EC50
H-Y[Aib]QGTFTSDFSK[αMeL]LDKK([AEEA-γGlu-C18 diacid])AQ[Aib]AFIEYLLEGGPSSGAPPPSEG[AEEA]-NH2 [Example 56]	hGLP-1R (Homo sapiens)	167 nM
Y[Aib]QGTFTSDFS[Orn][αMeL]LDKK([AEEA-γGlu-C18 diacid])AQ[Aib]AFIEWLLEGGHSSGEPPPSGE-NH2 [Example 124]	hGLP-1R (Homo sapiens)	801 nM
H-Y[Aib]QGTFTSDFS[Orn][αMeL]LDKK([AEEA-AEEA-γGlu-C18 diacid])AQ[Aib]AFIEYLLE[Aib]GHSSGAPPPSGS-NH2 [Example 181]	hGLP-1R (Homo sapiens)	365 nM
H-Y[Aib]QGT[αMePhe(2-F)]TSDYSILLDKK([AEEA-γGlu-C18 diacid])AQ[Aib]AFIE[4Pal]LEEGGPSSGAPPPSEG-NH2 [Example 411]	hGLP-1R (Homo sapiens)	82.1 nM

# map each substance to its EC50
1. H-Y[Aib]QGTFTSDFS[Orn][αMeL]LDKK([AEEA-γGlu-C18 diacid])AQ[Aib]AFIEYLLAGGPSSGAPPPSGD-NH2 [Example 85]
2. Y[Aib]QGT[αMePhe(2-F)]TSDYSKILDKIAQK([AEEA-γGlu-C20 diacid])AFIQYLIEGGPSSGEPPPSEG-NH2 [Example 354]
3. H-Y[Aib]QGTFTSDFSK[αMeL]LDKK([AEEA-γGlu-C20 diacid])AQ[Aib]AFIEYLLE[Aib]GPSSGAPPPGGS-NH2 [Example 43]
4. H-Y[Aib]QGT[αMePhe(2-F)]TSDYSKLLDKIAQK([AEEA-γGlu-C20 diacid])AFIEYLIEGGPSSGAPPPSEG-NH2 [Example 339]
5. H-Y[Aib]QGTFTSDFSK[αMeL]LDKK([AEEA-γGlu-C18 diacid])AQ[Aib]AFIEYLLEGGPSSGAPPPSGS-NH2 [Example 141]
6. H-Y[Aib]QGTFTSD[4Pal][αMeS]Q[αMeL]LD[Orn]K([dE-γGlu-C18 diacid])AQ[αMe4Pal]QFIE[αMeY]LIA[Aib]GPSSGAPPPSGGGE-NH2 [Example 1185]
7. H-Y[Aib]QGT[αMePhe(2-F)]TSD[4Pal][αMeS]I[αMeL]LD[Orn]K([γGlu-γGlu-C18 diacid])AQ[Aib]NFI[dE][αMeY]LIEGGPSSGEPEPEEG-NH2 [Example 474]

result:
1. 387 nM
2. 175 nM
3. 539 nM
4. 192 nM
5. 562 nM
6. 66.1 nM
7. 10.6 nM

query: Please give the documented EC50 of H-Y[Aib]QGTFTSD[4Pal]SK[αMeL]LDKK([γGlu-γGlu-C18 diacid])AQ[Aib]AFIEYLIE[Aib]GPSSGAPPPSGSEE-NH2 [Example 905]
result: 215 nM
